# STUDY_TARGET: HLA B*3501 (Homo sapiens, UniProt P01889, A329T/A93T/A95T/C349S/D201E/D98Y/E176V/E187L/E204Q/E69T/I218V/K202T/L119I/Q94N/R155S/R180L/S121R/S35A/S48A/T118I/V127L/V306I/V36M/Y140S/Y91F)
# Format: binding
Use Normalized average relative binding affinity(ARB) to assign classes; range list: Low (below 0.2), Mid (0.2 to below 0.3), High (0.3 or more)

monomer_sequence="XXXXXXXPX [3064.0153]" label_value=High
monomer_sequence="XXXXXXXVX [3064.0158]" label_value=High
monomer_sequence="XXXPXXXXX [3064.0073]" label_value=Low
monomer_sequence="XXXXXXHXX [3064.0127]" label_value=Low
monomer_sequence="XXXXDXXXX [3064.0083]" label_value=Mid
monomer_sequence="XXXXXXTXX [3064.0137]" label_value=Mid

Here is the next item to consider.
Which class does XXXXXKXXX [3064.0109] fall in? Low

====

# STUDY_TARGET: HLA A*3001 (Homo sapiens, UniProt P04439, D140H/D185E/E176W/F33S/G80R/H175R/K168Q/R138E/R41S)
# ASSAY_NAME: biochemical
# Format: binding
Let's look at some sequences and their measured Normalized average relative binding affinity (ARB), HLA A*3001.

monomer_sequence="XIXXXXXXX [3064.0028]" test_value=0.18
monomer_sequence="KXXXXXXXX [3064.0009]" test_value=0.49
monomer_sequence="XXKXXXXXX [3064.0049]" test_value=0.20
monomer_sequence="XKXXXXXXX [3064.0029]" test_value=0.026
monomer_sequence="SXXXXXXXX [3064.0016]" test_value=0.32

I have this sequence here, CXXXXXXXX [3064.0002] , and I need its recorded Normalized average relative binding affinity (ARB), HLA A*3001. 0.097

Further, for XXRXXXXXX [3064.0055] ? 1.0

Consider next the sequence XXLXXXXXX [3064.0050] in the same way. 0.033

Ok, now WXXXXXXXX [3064.0019] 0.020

Please answer likewise for VXXXXXXXX [3064.0018] 0.074

How about XXXCXXXXX [3064.0062] ? 0.31

Now consider HXXXXXXXX [3064.0007] . 0.49

Now consider EXXXXXXXX [3064.0004] . 0.018

Please do the same for XXAXXXXXX [3064.0041] as well. 0.0077

Same read-out for MXXXXXXXX [3064.0011] ? 0.37

Next entry: XXSXXXXXX [3064.0056] 0.040

====

Form field: Normalized average relative binding affinity (ARB), HLA B*1501 (one value per entry).
# STUDY_TARGET: HLA B*1501 (Homo sapiens, UniProt P01889, A329T/A93T/A95T/C349S/D201E/D98Y/E187L/E204Q/E69M/E70A/K202T/N87E/Q94N/R155S/R180W/S121R/S35A/S48A/V306I/V36M/Y140S/Y91S)
# ASSAY_NAME: biochemical
# Type: binding

monomer_sequence="XKXXXXXXX [3064.0029]" test_value=0.0091
monomer_sequence="XXVXXXXXX [3064.0058]" test_value=0.14
monomer_sequence="KXXXXXXXX [3064.0009]" test_value=0.39
monomer_sequence="XXYXXXXXX [3064.0060]" test_value=0.60
monomer_sequence="QXXXXXXXX [3064.0014]" test_value=0.25
monomer_sequence="XLXXXXXXX [3064.0030]" test_value=0.52
monomer_sequence="RXXXXXXXX [3064.0015]" test_value=0.67

The record that follows has no Normalized average relative binding affinity (ARB), HLA B*1501 shown yet.
Returns the measured Normalized average relative binding affinity (ARB), HLA B*1501 for the input sequence. Input: LXXXXXXXX [3064.0010] 0.61
